Values from patent US20250099420A1

Here, each record is paired with measured pEC50 data.
# Test system: parental HEK cells
# Procedure Summary: HEK parental Agonist Counterscreen Assay (non-transfected cells)
# Format: cell-based
# Condition Description: Homo sapiens, HEK293; HEK Agonist Activity section of Table 4 (parental HEK counterscreen)
pEC50: −log10 of the molar value.

Known pEC50 results, listed for orientation:
Cc1ccc(CNc2nc3ccccc3n2CCN2CCOCC2)cc1; < 4.85
O=C(CC1Nc2ccccc2NC1=O)NCC1COc2ccccc2O1 (stereo not drawn); < 4.85

Could you now consider this next compound?
Ask | System parental HEK cells. Read-out pEC50. Item `Cc1ccc(OCC(=O)NNC(=O)CN(C)S(=O)(=O)c2ccc(C)cc2)cc1` . Report value.
Reply | < 4.84

---

# Assayed System: GPR139 (Homo sapiens, UniProt Q6DWJ6)
# Sequence (Q6DWJ6 whole entry): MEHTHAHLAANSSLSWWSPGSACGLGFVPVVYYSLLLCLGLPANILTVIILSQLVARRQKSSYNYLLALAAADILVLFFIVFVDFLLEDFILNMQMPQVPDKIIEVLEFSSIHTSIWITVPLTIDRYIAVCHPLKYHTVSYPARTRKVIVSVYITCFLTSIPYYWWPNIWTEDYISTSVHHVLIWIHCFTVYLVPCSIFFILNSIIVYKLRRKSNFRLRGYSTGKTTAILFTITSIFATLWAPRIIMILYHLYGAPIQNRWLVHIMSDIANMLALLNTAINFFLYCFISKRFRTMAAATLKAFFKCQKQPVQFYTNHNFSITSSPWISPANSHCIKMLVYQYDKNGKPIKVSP
# Procedure Summary: GPR139 Agonist titration / agonist counterscreen assay (calcium detection, HEK-GPR139 cells)
# Type: cell-based
# Parameters: expressed in transfected cells; host or cells: HEK Aequorin cells, Maxcyte transient transfection
# Condition Description: GPR139 Agonist Activity; based on logP
Property Name: Lipophilic Efficiency (logP)
Returns: the value as a bare number; no unit string appended.

Example entries begin here.
CC(NC(=O)Cn1ncc2c(Cl)cccc21)c1ccc2c(c1)OCCO2 (centres unmarked); 5.00
CC(Oc1ccc(Cl)cc1Cl)C(=O)NNC(=O)c1ccncc1 (centres unmarked); 4.53

Ask | Annotate the compound O=C(CN1C(=O)NC2(CCc3ccccc3C2)C1=O)N1CCc2ccccc2C1 (centres unmarked) with its measured Lipophilic Efficiency (logP).
Reply | 4.25

Ask | Identify the reported Lipophilic Efficiency (logP) for the following entry. Cc1cc(Cl)ccc1OCC(=O)NNC(=O)C1CC1c1ccccc1 (centres unmarked)
Reply | 4.70

---

# Test system: parental HEK cells
# Procedure Summary: HEK parental Agonist Counterscreen Assay (non-transfected cells)
# Assay type: cell-based
# Condition Description: HEK Agonist Activity section of Table 4 (parental HEK counterscreen)
Property Name: EC50

Use these answered entries as a reference point.
O=C(CSCc1cccc2ccccc12)Nc1c[nH]c(=O)[nH]c1=O [SR-01000296110]; > 14.1 µM
CN1CC[C@H](Oc2cc(-c3cn[nH]c3)ccc2NC(=O)N(Cc2ccccc2)C2CC2)C1.O=C(O)C(F)(F)F.O=C(O)C(F)(F)F [SR-00000007518]; > 14.1 µM
COC(=O)c1ccc(CNC(=O)Nc2ccc(-c3cn[nH]c3)cc2)cc1.O=C(O)C(F)(F)F [SR-00000005410]; > 14.1 µM
Cc1ccc(NC(=O)CSC2=C(C#N)C(c3ccc(F)cc3)CC(=O)N2)c(C)c1 (stereo not drawn) [SR-01000484494]; > 16 µM
COC(=O)C(CCSC)NC(=O)C1CC(Cc2ccc3c(c2)OCO3)=NO1 (stereo not drawn) [SR-01000193756]; > 14.1 µM

Now look at this entry.
Ask | Name the recorded EC50 of O=C(CN1N=C(c2ccc(Cl)cc2)CCC1=O)NCCN1CCc2ccccc2C1 [SR-01000145135] , assay system parental HEK cells.
Reply | > 14.1 µM

---

# Tested on: parental HEK cells
# Procedure Summary: HEK parental Agonist Counterscreen Assay (non-transfected cells)
# Assay type: cell-based
# Condition Description: HEK Agonist Activity
Please use Met whenever Lipophilic Efficiency (logP) is not below 1, and Not met whenever it is.

CCn1c(=O)n(CC(=O)NCC2COc3ccccc3O2)c(=O)c2ccccc21 (stereo not drawn); Met

Ask | Textbook exercise: given the entry Cc1ccc(S(=O)(=O)NC(=O)NC(C)Cc2ccccc2)cc1 (stereo not drawn) , state whether its Lipophilic Efficiency (logP) is greater than or equal to 1.
Reply | Met

Ask | Decide: Lipophilic Efficiency (logP) of COc1cc(OC)cc(C(=O)NNC(=O)C(C)Oc2ccc(Cl)cc2Cl)c1 (stereo not drawn) >= 1?
Reply | Met

Ask | Reported Lipophilic Efficiency (logP) at or above 1? CN1CCC(Oc2cc(-c3cn[nH]c3)ccc2NC(=O)C2COc3ccc(F)cc3C2)C1 (stereo not drawn)
Reply | Met

Ask | Quick check: does `Cc1ccc(CCNC(=O)Cn2cc3c(n2)CCCCC3)cc1` have Lipophilic Efficiency (logP) greater than or equal to 1?
Reply | Met

Ask | Given the entry `Cc1cccc(NC(=O)NCCc2ccc3c(c2)CCCN3C)c1` , answer whether its Lipophilic Efficiency (logP) meets or surpasses 1.
Reply | Not met

Ask | hey, is Lipophilic Efficiency (logP) for this one >= 1? CC(C)(C)CN1CCNC(=O)C1CC(=O)NCCc1cnn(-c2ccccc2)c1 (stereo not drawn)
Reply | Met

Ask | Identify whether the reported Lipophilic Efficiency (logP) of the following molecule is 1 or greater: `Cc1ccc(SCC(=O)Nc2nnc(-c3ccccc3Cl)o2)cc1`
Reply | Not met

Ask | Does Lipophilic Efficiency (logP) meet or surpass 1 for `COP(=O)(CN(CCc1ccc(Cl)cc1)C(=O)Nc1ccc(Cl)c(Cl)c1)OC` ?
Reply | Not met

Ask | Determine whether measured Lipophilic Efficiency (logP) meets or exceeds 1 for `COc1cccc(C(=O)NNC(=O)COc2ccc(C)cc2Br)c1`
Reply | Met

Ask | Check the entry `O=C(CSCc1ccc(Cl)cc1Cl)NNC(=O)c1ccccc1` : does Lipophilic Efficiency (logP) equal or exceed 1?
Reply | Met

Ask | Could you tell me if the measured Lipophilic Efficiency (logP) of COc1ccccc1CC1(C)NC(=O)N(CC(=O)NC(C)c2cccc(Cl)c2)C1=O (stereo not drawn) reaches 1 or more?
Reply | Met

Ask | hey, is Lipophilic Efficiency (logP) for this one >= 1? `Cc1ccccc1CN1CCN(CC(=O)NCCc2ccc(Cl)cc2)C1=O`
Reply | Met

Ask | Record `O=C(CCc1nc2cccnc2n1Cc1cccs1)NCCc1ccccc1` ; criterion: Lipophilic Efficiency (logP) no lower than 1. Met?
Reply | Met

Ask | Reported Lipophilic Efficiency (logP) reaches at least 1 for CC1(c2ccc(Cl)cc2)NC(=O)N(CC(=O)NCc2cccs2)C1=O (stereo not drawn) ?
Reply | Met
